Every entry's value here was drawn from patent US7417156B2.

The following molecules are shown together with reported Log10TGI50 values.
System: COLO 205
Experiment: NCI 60 cell line panel screen (SRB)
Assay type: cell-based, human
Details: COLO 205 (Colon Cancer); TGI: PG=0

Example results:
| molecule | Log10TGI50 |
| --- | --- |
| C[C@@H]1CC[C@H]2[C@@H](C)C(=O)O[C@@H]3O[C@]4(C)CC[C@@H]1[C@]32OO4 [Artemisinin] | >−4.00 log10M |
| CC1CCC2C(C)C(CC(O)(CC3OC4OC5(C)CCC6C(C)CCC(C3C)C46OO5)CS(=O)(=O)c3ccc(C(=O)O)cc3)OC3OC4(C)CCC1C32OO4 (stereo not drawn) [Compound 10c] | <−8.30 log10M |

Recorded Log10TGI50 (molecule CC1CCC2C(C)C(CC(CO)CC3OC4OC5(C)CCC6C(C)CCC(C3C)C46OO5)OC3OC4(C)CCC1C32OO4 (stereo not drawn) [Compound 4, bis-trioxane primary alcohol] ): −6.43 log10M

###

System: K-562
Experiment: NCI 60 cell line panel screen (SRB)
Format: cell-based, human
Conditions: K-562 (Leukemia); TGI: PG=0
reportedEndpoint: Log10TGI50

| compound | assayedSystem | Log10TGI50 |
| --- | --- | --- |
| CC(=O)O[C@H]1C(=O)[C@@]2(C)[C@H]([C@H](OC(=O)c3ccccc3)[C@]3(O)C[C@H](OC(=O)[C@H](O)[C@@H](NC(=O)c4ccccc4)c4ccccc4)C(C)=C1C3(C)C)[C@]1(OC(C)=O)CO[C@@H]1C[C@@H]2O [Paclitaxel, paclitaxel, reference compound] | K-562 | >−4.00 log10M |
| CC1CCC2C(C)C(CC(CO)CC3OC4OC5(C)CCC6C(C)CCC(C3C)C46OO5)OC3OC4(C)CCC1C32OO4 (stereo not shown) | K-562 | >−4.00 log10M |

Data point: C[C@@H]1CC[C@H]2[C@@H](C)C(CC(O)(COC(=O)CCC(=O)O)CC3OC4O[C@]5(C)CC[C@H]6[C@H](C)CC[C@@H]([C@H]3C)C46OO5)OC3O[C@]4(C)CCC1C32OO4 (stereo partly shown) [Compound 9, tertiary alcohol primary succinate ester] ; Log10TGI50 = >−4.30 log10M

Consider C[C@@H]1CC[C@H]2[C@@H](C)C(CC(O)(CC3OC4O[C@]5(C)CC[C@H]6[C@H](C)CC[C@@H]([C@H]3C)C46OO5)c3ccc(C(=O)O)cc3)OC3O[C@]4(C)CCC1C32OO4 (stereo partly shown) [Compound 11b] . Its measured Log10TGI50 is >−4.30 log10M

###

Test system: OVCAR-3
Test: NCI 60 cell line panel screen (SRB)
Type: cell-based, human
Conditions: OVCAR-3 (Ovarian Cancer); LC50: PG=−50
reportedEndpoint: Log10LC50

| compound | assayedSystem | Log10LC50 |
| --- | --- | --- |
| CC(=O)O[C@H]1C(=O)[C@@]2(C)[C@H]([C@H](OC(=O)c3ccccc3)[C@]3(O)C[C@H](OC(=O)[C@H](O)[C@@H](NC(=O)c4ccccc4)c4ccccc4)C(C)=C1C3(C)C)[C@]1(OC(C)=O)CO[C@@H]1C[C@@H]2O [Paclitaxel, paclitaxel, reference compound] | OVCAR-3 | >−4.00 log10M |

Measured Log10LC50 of CC1CCC2C(C)C(CC(O)(CC3OC4OC5(C)CCC6C(C)CCC(C3C)C46OO5)CS(=O)(=O)c3ccc(C(=O)O)cc3)OC3OC4(C)CCC1C32OO4 (centres unmarked) [Compound 10c] : −5.01 log10M

Just so you know, measured Log10LC50 for CC1CCC2C(C)C(CC(COC(=O)CCC(=O)O)CC3OC4OC5(C)CCC6C(C)CCC(C3C)C46OO5)OC3OC4(C)CCC1C32OO4 (centres unmarked) [Compound 8a, bis-trioxane primary succinate monoester] came out at >−4.30 log10M

Short answer for CC1CCC2C(C)C(CC(COC(=O)c3cc[n+]([O-])cc3)CC3OC4OC5(C)CCC6C(C)CCC(C3C)C46OO5)OC3OC4(C)CCC1C32OO4 (centres unmarked) [Compound 13] : Log10LC50 was −4.51 log10M

GET /value?item= C[C@@H]1CC[C@H]2[C@@H](C)C(CC(O)(COC(=O)CCC(=O)O)CC3OC4O[C@]5(C)CC[C@H]6[C@H](C)CC[C@@H]([C@H]3C)C46OO5)OC3O[C@]4(C)CCC1C32OO4 (some centres unmarked) [Compound 9, tertiary alcohol primary succinate ester] &field=Log10LC50 returns >−4.30 log10M
